# credit: the nanobody polyreactivity screen of Harvey et al. (2022)

- PROCEDURE TEXT: yeast display, Sf9 membrane polyspecificity reagent, FACS + sequencing; frameworks hold sequencing errors
MEASURED QUANTITY: polyreactivity (PSR sort gate)

Some entries whose results are on file:
{"ITEM SEQUENCE": "QVQLVESGGGLVQAGGSLRLSCAASGSTLPVNAMGWYRQAPGKERELVAAINRDGSTNYADSVKRPFTFSRDNAKNTVYLQMNSLKQEDTAVYYCAADGFGYPGKRYDYWGQGTQVTVSS", "polyreactivity (PSR sort gate)": "low polyreactivity"}
{"ITEM SEQUENCE": "QVQLVESGGGIVQAGGSLRLSCAASGSIFSYYAMGWYRQAPGKERELVAAITSGGATTYYADSVKGRFTISRDNAKNTVYLQMNSLKPEDTAVYYCAAGYYVYYRWWELDYWGQGTQVTVSS", "polyreactivity (PSR sort gate)": "low polyreactivity"}
{"ITEM SEQUENCE": "QVQLVESGGGLVQAGGSLRLSCAASGSIFLWYAMGWSRQAPGKERELVAALTYSGGTTYYADSVKGRFTISRDNAKNTVYLQLNSLKPEDTAVYYCAKRTAVWTSGGYRKRDYWGQGTQVTVSS", "polyreactivity (PSR sort gate)": "high polyreactivity"}
{"ITEM SEQUENCE": "QVQLQESGGGLVQEGGSLRLSCAASGNISPPADMGWYRQAPGKERELVASIGTGGTTNYADSVKGRFTISRDNAKNTVYLQMNSLKPDDTAVYYCAAVRYEYNPYDYWGEGTQVTVSS", "polyreactivity (PSR sort gate)": "low polyreactivity"}
{"ITEM SEQUENCE": "QVQLVESGGGLVQAGGSLRLSCAASGSIFYGNAMGWYRQAPGKERELVARISWSGSNTRYADSVKGRFTISRDNAKNTVYLQMNSLKPEDTAVYYCNVKPSARGSPLYDYWGQGTQVTVSS", "polyreactivity (PSR sort gate)": "high polyreactivity"}
{"ITEM SEQUENCE": "QVQLVESGGGLVQAGGSLRLSCAASGSTFKDNAMGWYIQAPGKERELVASITGRGGSTYYADSVKGRFTISRDNAKNTVYLHMNSLKPEDTAVYYCAARAYYGVYKSPYDYWGQGTQVTVSS", "polyreactivity (PSR sort gate)": "high polyreactivity"}

Dear colleague, could you send me polyreactivity (PSR sort gate) for each of the items below? Thanks.
1. QVQLVESGGGLVQAGGSLRLSCAASGITQYGYAMGWYRQAPGKEREFVAAISRSGDRTYYADSVKGRYTISRDNAKNTVYLQLNSLKPEDTAVYYCNAWRYDYWGQGTQVTVSS
2. QVQLVESGGGLVQAGGSLRLSCAASGFIFPRYTMGWYRQAPGKERELVASITRGVRTHYADSVKGRFTISRDNAKNTVYLQMNSLKPEDTAVYYCARRNDYVYTRHFDSWGQGTQVTVSS
3. QVQLVESGGGLVQAGGSLRLSCAASGSIFSDNAMGWYRPAPGKESELVAAITYSGGRTSYADSVKGRFTISRDNAKNTVYLQMNSLKPEDTAVYYCNAEYYYWNREGDYWGQGTQVTVSS

Reply:
["high polyreactivity", "high polyreactivity", "low polyreactivity"]

Dear colleague, could you send me polyreactivity (PSR sort gate) for each of the items below? Thanks.
1. QVQLVESGGGLVQAGGSLRLSCAASGYIIWSYAMGWYRQAPGKERELVAGISYSGGSTYYADSVKGRFTISRDNAKNTVYLQMNSLKPEDTAVFYCAALRRGYVPFGYWGQGTQVTVSS
2. QVQLVESGGGLVQAGGSLRLSCAASGLTFASNALGWYRQAPWKERELVAGISRTGTTTYYADSVKGRFTISRDNAKNTVYLQMNSLKPEDTAVYYCAASKQAVKYRSQRYYYWGQGTQVTVSS
3. QDQLVESGGGLVQAGGSLRLSCAASGITFKFYAMGWYRQAPGKERELVAAISWSGGSTYYADSVKGRFTISRDNAKNTVYLQMNSLKPEDTAVYYCAAYTGWIYHTRYRRDYWGQGTQVTVSS

Reply:
1. high polyreactivity
2. high polyreactivity
3. high polyreactivity

Dear colleague, could you send me polyreactivity (PSR sort gate) for each of the items below? Thanks.
1. QVQLVESGGGLVQAGGSLRLSCAASGRIYYVYGMGWYRQAPGKERELVAAITRSGGSTYYADSVKGRFTISRDNAKNTVYLQMNSLKPEDTAVYYCAASVPYYTGYYYNAYEYWGQGTQVTVSS
2. HVQLVESAGGLVQEGGSLRVSCAASGFTFSFYAMGGYRQAPGKERELVAAISWNSGSTYYADSVKGRFTISRDNAKNTVYLQMNSLKPADTAVYYCAADVQRYRGITYYYWGQGTPVTVSS
3. QVQLVESGGGLVQAGGSLRLSCAASGFIFTGNVMGWYRQGPGKERELVAGITYTSGSTYYADSVKGRFTISRDNAKNTVYLQMNSLKPEDTAVYYCAAEVYVPDYFQHKFDVEYEYWGLGTQVTVSS
4. QVQLVESGGCLVKAGGSLRISCAASGFTFTKYAMGWYRPAPGKESELVAAINRSGRTYYADSVKGRFTISRDNAKNTVYLQMNSLKPEDTAVYDCAAYTRYQYRAYDYWGQGTQVTVSS
5. QVQLVESGGGLVQAGGSLRLSCAASGRTFVRYAMGWYRQAPGKERELVAAISWSGGSTYYADSVKGRFTISRDNAKNTVYLQKNSLKPEDTAVYYCAAVDETPSSHEEDYWGQGTQVTVSS
6. QVQLVESGGGLVQAGGSLRLSCAASGRIFAFYAMGWYRQAPGKERELVAAITWSGGSTYYADSVKGRFTISRDNAKNTVYLQMNSLKPEDTAVYYCAARYRHYFVRGGYWGQGTQVTVSS

Reply:
1: high polyreactivity; 2: high polyreactivity; 3: low polyreactivity; 4: high polyreactivity; 5: high polyreactivity; 6: high polyreactivity

Dear colleague, could you send me polyreactivity (PSR sort gate) for each of the items below? Thanks.
1. QVQHVESGGGLVQAGGSQRLSCAASGSTLYYNAMGWYRQAPGKEREFVAGISSSGGRTYYADSVKGRFTISRDNAKNTVYLQMNSLKPEDTAVYYCARVGAIPSRYGYWGQGTQVTVSS
2. QVQLVESGGGLVQAGGSLRLSCAASGRIISYNAMGWYRQAPGKERELVAAISWGGGSTYYADSVKGRFTISRDNAKNTVYLQLNSLKPEDTAVYYCAKGWYRIKRNDYWGQGTQVTVSS
3. QVQLVESGGGLVQAGGSLRLICADSGFILPRNAMGWYRQAPGKERELVAAIRSSGGTTYYADSVKGRFTISRDIAKNTVYLQMNSLKPEDTAVYYCAAVTTSKFNYWGQGTQVTVSS

Reply:
1: high polyreactivity; 2: low polyreactivity; 3: low polyreactivity
